# SYSTEM UNDER TEST: T1, TCE-20 (anti-CD3 scFv S110A; anti-TROP2 wt)
# T1 construct: scFv on the Fab heavy chain; also called TCE-20 (S110A)
# MEASUREMENT NOTES: competition ELISA, TCE on captured CD3
Where no end group is shown, it is not given here.
READOUT KIND: IC50 (µM)

{"BINDER": "SECLVDLQSDPCYW (cysteine pairing not given here; also: biotinylated, site not given here, mask peptide for the CD3 scFv) [Peptide-69]", "OUTPUT UNIT": "µM", "RECORDED MEASUREMENT": 4.24}

(A) DWCWYSPDNDGLCD (cysteine pairing not given here; also: biotinylated, site not given here, mask peptide for the CD3 scFv) [Peptide-68]
(B) AYCGPEFDESVGCM (cysteine pairing not given here; also: biotinylated, site not given here, mask peptide for the CD3 scFv) [Peptide-72]
*Q* Recorded IC50 values differ for A and B ; which one is higher? Pick one; state its label.
*A* B

Origin of values: patent US20230357429A1
